test_system: Adenosine receptors; A1 & A2b (Homo sapiens) (UniProt P30542+P29275)
assay_text: Selectivity for human adenosine A2b receptor over adenosine A1 receptor
Format: protein assay
// assign Condition met if Ratio Ki falls strictly below 9, else Condition not met (ties count as Condition not met)

* CCn1c(=O)c2nc(-c3cnn(Cc4ccccc4)c3)[nH]c2n(CC)c1=O | Condition not met
* CC(C)Cn1c(=O)c2nc(-c3cnn(Cc4cccc(F)c4)c3)[nH]c2n(CC(C)C)c1=O | Condition met
* CCCn1c(=O)c2nc(-c3cnn(Cc4ccccc4OC)c3)[nH]c2n(CCC)c1=O | Condition met
* CCCn1c(=O)c2nc(-c3cnn(CCc4ccccc4)c3)[nH]c2n(CCC)c1=O | Condition met
* CCCn1c(=O)c2nc(-c3cnn(Cc4cccc(OC)c4)c3)[nH]c2n(CCC)c1=O | Condition met

----------
# Ki annotations
Target chain: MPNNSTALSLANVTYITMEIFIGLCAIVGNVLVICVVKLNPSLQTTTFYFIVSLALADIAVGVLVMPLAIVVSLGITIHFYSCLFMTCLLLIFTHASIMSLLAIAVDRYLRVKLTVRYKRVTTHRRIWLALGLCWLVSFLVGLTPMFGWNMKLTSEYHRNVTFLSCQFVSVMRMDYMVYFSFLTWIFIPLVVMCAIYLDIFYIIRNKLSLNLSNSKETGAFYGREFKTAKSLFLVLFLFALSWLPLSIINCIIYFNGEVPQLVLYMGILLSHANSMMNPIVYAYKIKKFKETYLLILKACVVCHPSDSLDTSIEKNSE
readout_label: Ki (µM)

* Cn1c(=O)c2nc(-c3cnn(Cc4cccc(C(F)(F)F)c4)c3)[nH]c2n(C)c1=O | 1
* CCCn1c(=O)c2[nH]c(-c3cnn(Cc4cccc(F)c4)c3)nc2n(CCC)c1=O | 0.056

----------
test_system: Adenosine receptor A2a (Homo sapiens, UniProt P29274)
Sequence (P29274 whole entry): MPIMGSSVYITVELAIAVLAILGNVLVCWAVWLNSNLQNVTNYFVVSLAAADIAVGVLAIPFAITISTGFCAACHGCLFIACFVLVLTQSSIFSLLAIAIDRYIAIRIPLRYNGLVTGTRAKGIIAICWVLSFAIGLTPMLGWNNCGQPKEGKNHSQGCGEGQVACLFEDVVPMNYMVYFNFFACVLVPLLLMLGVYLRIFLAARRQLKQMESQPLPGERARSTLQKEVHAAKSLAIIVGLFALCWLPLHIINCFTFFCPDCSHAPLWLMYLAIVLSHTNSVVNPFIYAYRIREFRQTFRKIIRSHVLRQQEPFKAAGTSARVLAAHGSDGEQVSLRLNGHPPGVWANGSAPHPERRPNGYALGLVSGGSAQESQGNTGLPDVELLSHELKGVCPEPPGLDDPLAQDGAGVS
pKi: −log10 of the molar value.
Label scheme for pKi: lower than 7 is condition not met, 7 and above is condition met.

* CCCn1c(=O)c2[nH]c(-c3cnn(Cc4cccc(C)c4F)c3)nc2n(CCC)c1=O | condition not met
* CCCn1c(=O)c2[nH]c(-c3cnn(-c4ccccc4)c3)nc2n(CCC)c1=O | condition not met
* CCCn1c(=O)c2nc(-c3cnn(Cc4ccccc4Cl)c3)[nH]c2n(CCC)c1=O | condition met
* Cn1c(=O)c2[nH]c(-c3cnn(Cc4cccc(F)c4)c3)nc2n(C)c1=O | condition not met

----------
test_system: Adenosine receptors; A1 & A2b (Homo sapiens) (UniProt P30542+P29275)
assay_text: Selectivity for human adenosine A2b receptor over adenosine A1 receptor
Assay type: protein assay
// assign criterion met if Ratio Ki falls strictly below 1, else criterion not met (ties count as criterion not met)

- CCCn1c(=O)c2nc(-c3cnn(Cc4ccccc4Cl)c3)[nH]c2n(CCC)c1=O: criterion not met
- CCCn1c(=O)c2nc(-c3cnn(Cc4cc(C(F)(F)F)ccc4Cl)c3)[nH]c2n(CCC)c1=O: criterion not met
- CCCn1c(=O)c2nc(-c3cnn(Cc4ccc(OC)cc4)c3)[nH]c2n(CCC)c1=O: criterion not met
- CCCn1c(=O)c2[nH]c(-c3cnn(Cc4ccccc4)c3)nc2n(CCC)c1=O: criterion not met
- CCn1c(=O)c2nc(-c3cnn(Cc4cccc(F)c4)c3)[nH]c2n(CC)c1=O: criterion not met
- CCCn1c(=O)c2nc(-c3cnn(Cc4ccccc4C)c3)[nH]c2n(CCC)c1=O: criterion met
- Cn1c(=O)c2[nH]c(-c3cnn(Cc4cccc(F)c4)c3)nc2n(C)c1=O: criterion not met
- CCCn1c(=O)c2nc(-c3cn[nH]c3)[nH]c2n(CCC)c1=O: criterion not met
- CCn1c(=O)c2nc(-c3cnn(Cc4cccc(C(F)(F)F)c4)c3)[nH]c2n(CC)c1=O: criterion not met
- CCCn1c(=O)c2[nH]c(-c3cnn(Cc4cccc(C(F)(F)F)c4)c3)nc2n(CCC)c1=O: criterion not met
- Cn1c(=O)c2nc(-c3cnn(Cc4cccc(C(F)(F)F)c4)c3)[nH]c2n(C)c1=O: criterion not met
- CCCn1c(=O)c2nc(-c3cnn(Cc4cccc(Cl)c4)c3)[nH]c2n(CCC)c1=O: criterion not met
- CCCn1c(=O)c2nc(-c3cnn(CCCc4ccccc4)c3)[nH]c2n(CCC)c1=O: criterion met
- CCCn1c(=O)c2nc(-c3cnn(Cc4ccc(Cl)cc4)c3)[nH]c2n(CCC)c1=O: criterion met
- CCCn1c(=O)c2nc(-c3cnn(Cc4ccc(F)c(F)c4)c3)[nH]c2n(CCC)c1=O: criterion not met
